target: LXRα (Homo sapiens)
Construct: Co-transfection expression plasmids, comprising full-length LXRα (pCMX-h LXRα); expressed in transfected cells; host or cells: CV-1 African green monkey kidney cells, transient transfection with FuGENE6
Sequence (Q13133 whole entry): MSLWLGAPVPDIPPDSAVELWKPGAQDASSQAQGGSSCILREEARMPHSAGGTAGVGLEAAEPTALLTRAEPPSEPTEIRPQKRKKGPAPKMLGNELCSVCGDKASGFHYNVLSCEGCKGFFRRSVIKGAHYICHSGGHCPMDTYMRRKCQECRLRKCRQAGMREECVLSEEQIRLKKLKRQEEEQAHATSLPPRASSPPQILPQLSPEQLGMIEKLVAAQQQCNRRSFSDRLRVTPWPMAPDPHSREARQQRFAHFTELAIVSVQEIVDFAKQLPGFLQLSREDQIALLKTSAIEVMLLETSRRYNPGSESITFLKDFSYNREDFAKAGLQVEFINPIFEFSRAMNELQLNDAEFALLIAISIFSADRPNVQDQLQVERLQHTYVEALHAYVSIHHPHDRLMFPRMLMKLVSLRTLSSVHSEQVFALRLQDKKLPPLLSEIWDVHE
Sequence (P19793 whole entry partner): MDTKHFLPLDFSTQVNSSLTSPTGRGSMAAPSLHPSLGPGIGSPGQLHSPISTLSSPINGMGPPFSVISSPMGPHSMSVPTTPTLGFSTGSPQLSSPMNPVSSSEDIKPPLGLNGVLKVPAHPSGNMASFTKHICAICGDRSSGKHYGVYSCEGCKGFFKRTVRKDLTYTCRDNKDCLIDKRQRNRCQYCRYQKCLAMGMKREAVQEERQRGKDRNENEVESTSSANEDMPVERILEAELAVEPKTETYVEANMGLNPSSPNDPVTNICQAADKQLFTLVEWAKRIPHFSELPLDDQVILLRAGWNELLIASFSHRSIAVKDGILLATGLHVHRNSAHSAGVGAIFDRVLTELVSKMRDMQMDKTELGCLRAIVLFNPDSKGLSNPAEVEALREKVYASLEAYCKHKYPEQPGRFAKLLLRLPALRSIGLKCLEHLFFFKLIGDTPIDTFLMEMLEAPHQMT
procedure_text: LXR/LXRE co-transfection assay (LXRα)
Format: cell-based
condition_parameters: efficacy relative to high control N-(3-((4-fluorophenyl)-(naphthalene-2-sulfonyl)amino)propyl)-2,2-dimethylpropionamide; read-out: LXRα Eff (%)
experimental_endpoint: Emax (%)
Supply the numeric figure in %, leaving out any unit text.

Below, each entry is followed by its recorded Emax result.
CC(C)(O)c1cn(-c2ccc(-c3cc(F)c(CO)c(S(C)(=O)=O)c3)cc2F)c(C(C)(C)c2ccccc2F)n1 | 10
CC(C)(O)c1cn(-c2ccc(-c3cc(F)c(CO)c(S(C)(=O)=O)c3)cc2F)c(C(C)(C)c2ccccc2Cl)n1 | 25
CC(C)(O)c1cn(-c2ccc(-c3cc(F)c(CO)c(S(C)(=O)=O)c3)cc2F)c(C(C)(C)c2c(F)cccc2Cl)n1 | 15
CC(C)(O)c1cn(-c2ccc(-c3cc(F)c(CO)c(S(C)(=O)=O)c3)cc2)c(Cc2ccc(Cl)cc2Cl)n1 | 8
CC(C)(O)c1cn(-c2ccc(-c3cc(F)c(CO)c(S(C)(=O)=O)c3)cc2F)c(Cc2ccccc2Cl)n1 | 15
CC(C)(O)c1cn(-c2ccc(-c3cc(F)c(CO)c(S(C)(=O)=O)c3)cc2)c(Cc2c(Cl)cccc2Cl)n1 | 17

Below: the item to evaluate.
Q: Given CC(C)(O)c1cn(-c2ccc(-c3cc(F)c(CO)c(S(C)(=O)=O)c3)cc2Cl)c(Cc2ccc(F)cc2Cl)n1 , state its recorded Emax.
Result: 18

###

target: LXRα (Homo sapiens)
Construct: Co-transfection expression plasmids, comprising full-length LXRα (pCMX-h LXRα); expressed in transfected cells; host or cells: CV-1 African green monkey kidney cells, transient transfection with FuGENE6
procedure_text: LXR/LXRE co-transfection assay (LXRα)
Format: cell-based
condition_parameters: efficacy relative to high control N-(3-((4-fluorophenyl)-(naphthalene-2-sulfonyl)amino)propyl)-2,2-dimethylpropionamide; read-out: LXRα Eff (%)
Protocol: To measure the ability of compounds to activate or inhibit the transcriptional activity of LXR in a cell based assay, the co-transfection assay was used. It has been shown that LXR functions as a heterodimer with RXR. […] Treatment of transfected cells with an LXR agonist increases the transcriptional activity of LXR, which is measured by an increase in luciferase activity. […]
Respond with fulfilled for Emax values of 10% and above, not fulfilled for values below.

Please review the following examples before continuing.
CC(C)(O)c1cn(-c2ccc(-c3cc(F)c(CO)c(S(C)(=O)=O)c3)cc2Cl)c(C(C)(C)c2c(Cl)cccc2Cl)n1 [Example 3] | not fulfilled
CC(C)(O)c1cn(-c2ccc(-c3cc(F)c(CO)c(S(C)(=O)=O)c3)cc2)c(C(C)(C)c2cccc(F)c2Cl)n1 [Example 4] | fulfilled
CC(C)(O)c1cn(-c2ccc(-c3cc(F)c(CO)c(S(C)(=O)=O)c3)cc2F)c(Cc2ccc(F)cc2Cl)n1 [Example 14] | fulfilled
CC(C)(O)c1cn(-c2ccc(-c3cccc(S(C)(=O)=O)c3)cc2)c(C(C)(C)c2ccccc2Cl)n1 [Compound No. 19, Table 1, WO 2007/002563, reference compound] | fulfilled
CC(C)(O)c1cn(-c2ccc(-c3cc(F)c(CO)c(S(C)(=O)=O)c3)cc2F)c(Cc2ccccc2C(F)(F)F)n1 [Example 12] | fulfilled

Q: Item Cc1ccccc1Cc1nc(C(C)(C)O)cn1-c1ccc(-c2cc(F)c(CO)c(S(C)(=O)=O)c2)cc1 [Example 17] with Emax of 10% or above?
Result: fulfilled
